Numbers sourced from ChEMBL document CHEMBL3832761.

Quick reference for pIC50 among some compounds
# System: Cryptosporidium parvum
# TEST_NAME: AntiCryptosporidium parvum activity Compounds added at t0, IC 50 (uM)
# Type: functional, organism-based
The scale used: pIC50 is minus the common logarithm of the concentration in molar units.

CHEMICAL_STRUCTURE: Nc1ncnc2c1c(Cc1cccc3ccccc13)nn2CC1CCNCC1
pIC50: 6.30

The record that follows has no pIC50 shown yet.
Field pIC50 (system: Cryptosporidium parvum) for entry COc1ccc(-c2nn(C(C)C)c3ncnc(N)c23)cc1OC = 6.30

* * *

Quick reference for IC50 among some molecules
# System: Plasmodium falciparum
# TEST_NAME: Antimalarial activity: Asexual Blood Stage Plasmodium falciparum 3D7 IC50 (uM)
# Assay type: functional, organism-based
Form entry: value (nM) — number only.

MOLECULE: Cc1ccc2cc(C3NC(=O)c4ccccc4N3)c(Cl)nc2c1 (configuration not stated)
RECORDED_RESULT: 1660
//
MOLECULE: NS(=O)(=O)c1cncc(-c2ccc3nccc(-c4cn[nH]c4)c3n2)c1
RECORDED_RESULT: 600
//
MOLECULE: CCn1ncc2c(NC3CCOCC3)c(CNC(=O)c3ccnn3C)c(C)nc21
RECORDED_RESULT: 280
//
MOLECULE: Cc1cc(C)n(-c2ccc(NC(=O)C3CCN(Cc4cnc(C)s4)CC3)cc2)n1
RECORDED_RESULT: 780

// sample Cc1ccc2c(c1C)NC(=O)C21NN=C(c2ccccc2)S1 (configuration not stated) , its IC50 was 1130

// sample COc1ccc(-c2cnc3ccc(NCc4ccc(S(N)(=O)=O)cc4)nn23)cn1 , its IC50 was 490

// sample CCC(NC(=O)c1ccccc1NC(=O)c1ccc(C)cc1)C(=O)OC (configuration not stated) , its IC50 was 160
